- Study Target: T1, dimeric pseudo wild‐type 14‐3‐3ζ (14‐3‐3ζ C25A/C189A) (UniProt P63104 1-245, C25A | C189A)
- T1 construct: additional residues at the N-terminus; 14-3-3ζ, residues 1-245, UniProt P63104; C25A and C189A count on P63104; The results speak of '230 residues examined' in the crystals, the methods of residues 1-245 plus SVD; also called d14‐3‐3ζ; dimeric 14‐3‐3ζ
- T1 sequence: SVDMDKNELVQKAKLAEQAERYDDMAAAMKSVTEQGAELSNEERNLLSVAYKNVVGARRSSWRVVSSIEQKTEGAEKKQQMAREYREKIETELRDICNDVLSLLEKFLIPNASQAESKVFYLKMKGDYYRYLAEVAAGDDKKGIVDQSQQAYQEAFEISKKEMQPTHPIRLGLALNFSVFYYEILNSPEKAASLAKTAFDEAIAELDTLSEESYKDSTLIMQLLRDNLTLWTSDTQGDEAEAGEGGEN
- Test Protocol: ITC; 3 mM d14-3-3ζ injected into 160 μM SP-(432-439) or 150 μM UP-(333-362); 27 °C; 50 mM MOPS, 100 mM NaCl, 4 mM β-mercaptoethanol; n set to one in the fit
- Settings: both partners purified
Square brackets hold non-standard residues; d marks the D form. Ends that are not written are not given here. pS = N[C@@H](COP(=O)(O)O)C(=O)O
Answer each item with its documented Kd.
One number for each entry, in mM.

Binder: QIVTKKIDLSHVTSKCGSLKNIRHRPGGGR (source: synthetic peptide, ordered from Clonestar) [peptide corresponding to residues 333–362 of MAP2c]
Assay Endpoint: Kd
Reported: 1.8

Switching to the query record.
According to the records, this binder RRL[pS]NVSS (source: synthetic peptide, ordered from Clonestar) [phosphopeptide corresponding to residues 432–439 of MAP2c] displays Kd of 3.2
